System: P-Akt (S473)
assay-method-text: Cell based AlphaLISA assay, inhibition of P-Akt (S473) in MDA-MB-468 cells
condition-context: Homo sapiens, 4 h, 0.017-1,000 nM, two to four hours at 37° C., AlphaLisa SureFire Ultra, read-out: pIC50 for Inhibition of mTORC1 and mTORC2 Substrate Phosphorylation, p-AKT1/2/3-(S473) (converted)
measured-property: IC50

- compound-structure: "CO[C@H]1C[C@@H]2CC[C@@H](C)[C@@](O)(O2)C(=O)C(=O)N2CCCC[C@H]2C(=O)O[C@H]([C@H](C)C[C@@H]2CC[C@@H](O)[C@H](OC)C2)C[C@@H](OC)[C@H](C)/C=C(\\C)[C@@H](O)[C@@H](OC)C(=NOCC(=O)NCCOCCOCCOCCOCCOCCOCCOCCOCCC(=O)N2CCc3cc(Cn4nc(-c5cnc6[nH]ccc6c5)c5c(N)ncnc54)ccc3C2)[C@H](C)C[C@H](C)/C=C/C=C/C=C/1C"
  target-under-test: "P-Akt (S473)"
  IC50: "> 1 µM"

Please turn your attention to the following entry.
Query :: Which value of IC50 has been reported for CO[C@H]1C[C@@H]2CC[C@@H](C)[C@@](O)(O2)C(=O)C(=O)N2CCCC[C@H]2C(=O)O[C@H]([C@H](C)C[C@@H]2CC[C@@H](O)[C@H](OC)C2)C[C@@H](O)[C@H](C)/C=C(\C)[C@@H](O)[C@@H](OC)C(=NOCC(=O)NCc2cnc(N3CCN(c4ncc(C(=O)NCCOCCOCCOCCC(=O)N5CCc6cc(Cn7nc(-c8cnc9[nH]ccc9c8)c8c(N)ncnc87)ccc6C5)cn4)CC3)nc2)[C@H](C)C[C@H](C)/C=C/C=C/C=C/1C in the records?
Result :: > 1 µM

* * *

Tested on: P-4E-BP1 (T37/46)
assay-method-text: Cell based AlphaLISA assay, inhibition of P-4E-BP1 (T37/46) in MDA-MB-468 cells
condition-context: Homo sapiens, 4 h, 0.017-1,000 nM, two to four hours at 37° C., AlphaLisa SureFire Ultra, read-out: pIC50 for Inhibition of mTORC1 and mTORC2 Substrate Phosphorylation, p-4E-BP1-(T37/46) (converted)
Experimental: Cell Based AlphaLISA Assays For Determining IC50 For Inhibition of P-Akt (S473), P-4E-BP1 (T37/46), and P-P70S6K (T389) in MDA-MB-468 Cells mTOR Kinase Cellular Assay To measure functional activity of mTORC1 and mTORC2 in cells the phosphorylation of 4EBP1 (Thr37/46) and P70S6K (Thr389), and AKT1/2/3 (Ser473) was monitored using AlphaLisa SureFire Ultra Kits (Perkin Elmer). […] Incubations are terminated by removal of the assay buffer and addition of lysis buffer provided with the assay kit. […]
Readings of IC50 for the listed molecules

- compound-structure: "CO[C@H]1C[C@@H]2CC[C@@H](C)[C@@](O)(O2)C(=O)C(=O)N2CCCC[C@H]2C(=O)O[C@H]([C@H](C)C[C@@H]2CC[C@@H](O)[C@H](OC)C2)CC(=O)[C@H](C)/C=C(\\C)[C@@H](O)[C@@H](OC)C(=O)[C@H](C)C[C@H](C)/C=C/C=C/C=C/1C"
  target-under-test: "P-4E-BP1 (T37/46)"
  measured-property: "IC50"
  measured: "> 1000 nM"
- compound-structure: "CO[C@H]1C[C@@H]2CC[C@@H](C)[C@@](O)(O2)C(=O)C(=O)N2CCCC[C@H]2C(=O)O[C@H]([C@H](C)C[C@@H]2CC[C@@H](O)[C@H](OC)C2)C[C@@H](O)[C@H](C)/C=C(\\C)[C@@H](O)[C@@H](OC)C(=NOCC(=O)NCc2cnc(N3CCN(c4ncc(C(=O)NCCOCCC(=O)N5CCc6cc(Cn7nc(-c8ccc9oc(N)nc9c8)c8c(N)ncnc87)ccc6C5)c(N)n4)CC3)nc2)[C@H](C)C[C@H](C)/C=C/C=C/C=C/1C"
  target-under-test: "P-4E-BP1 (T37/46)"
  measured-property: "IC50"
  measured: "> 1000 nM"
- compound-structure: "CO[C@H]1C[C@@H]2CC[C@@H](C)[C@@](O)(O2)C(=O)C(=O)N2CCCC[C@H]2C(=O)O[C@H]([C@H](C)C[C@@H]2CC[C@@H](O)[C@H](OC)C2)C[C@@H](O)[C@H](C)/C=C(\\C)[C@@H](O)[C@@H](OC)C(=NOCC(=O)NCc2cnc(N3CCN(C(=O)CCOCCN4CCN(c5ncc(C(=O)N6CCc7cc(Cn8nc(-c9ccc%10oc(N)nc%10c9)c9c(N)ncnc98)ccc7C6)cn5)CC4)[C@@H](C(=O)O)C3)nc2)[C@H](C)C[C@H](C)/C=C/C=C/C=C/1C"
  target-under-test: "P-4E-BP1 (T37/46)"
  measured-property: "IC50"
  measured: "3.16 to 31.6 nM"
- compound-structure: "COc1ccc(-c2ccc3ncc4c(c3c2)n(-c2ccc(N3CCN(c5ncc6c(n5)CCN(C(=O)c5cnc(N7CCN(CCOCCC(=O)N8CCN(c9ncc(CNC(=O)CON=C%10[C@H](C)C[C@H](C)/C=C/C=C/C=C(\\C)[C@@H](OC)C[C@@H]%11CC[C@@H](C)[C@@](O)(O%11)C(=O)C(=O)N%11CCCC[C@H]%11C(=O)O[C@H]([C@H](C)C[C@@H]%11CC[C@@H](O)[C@H](OC)C%11)C[C@@H](O)[C@H](C)/C=C(\\C)[C@@H](O)[C@H]%10OC)cn9)CC8)CC7)nc5)C6)CC3)c(C(F)(F)F)c2)c(=O)n4C)cn1"
  target-under-test: "P-4E-BP1 (T37/46)"
  measured-property: "IC50"
  measured: "> 1000 nM"

Please turn your attention to the following entry.
Query :: Lookup: IC50 / P-4E-BP1 (T37/46) / CO[C@H]1C[C@@H]2CC[C@@H](C)[C@@](O)(O2)C(=O)C(=O)N2CCCC[C@H]2C(=O)O[C@H]([C@H](C)C[C@@H]2CC[C@@H](O)[C@H](OC)C2)C[C@@H](O)[C@H](C)/C=C(\C)[C@@H](O)[C@@H](OC)C(=NOCC(=O)NCCOCCC(=O)N2CCc3nc(N4CCN(c5ncc(C(=O)N6CCc7cc(Cn8nc(-c9ccc%10oc(N)nc%10c9)c9c(N)ncnc98)ccc7C6)cn5)CC4)ncc3C2)[C@H](C)C[C@H](C)/C=C/C=C/C=C/1C
Result :: 3.16 to 31.6 nM

* * *

Readings of IC50 for the listed compounds
Test system: P-Akt (S473)
assay-method-text: Cell based AlphaLISA assay, inhibition of P-Akt (S473) in MDA-MB-468 cells
condition-context: Homo sapiens, 4 h, 0.017-1,000 nM, two to four hours at 37° C., AlphaLisa SureFire Ultra, read-out: pIC50 for Inhibition of mTORC1 and mTORC2 Substrate Phosphorylation, p-AKT1/2/3-(S473) (converted)

The following compounds have reported results that may help.
- compound-structure: "CO[C@H]1C[C@@H]2CC[C@@H](C)[C@@](O)(O2)C(=O)C(=O)N2CCCC[C@H]2C(=O)O[C@H]([C@H](C)C[C@@H]2CC[C@@H](O)[C@H](OC)C2)C[C@@H](O)[C@H](C)/C=C(\\C)[C@@H](O)[C@@H](OC)C(=NOCC(=O)NCc2cnc(N3CCN(C(=O)CCCN4CCN(c5ncc(C(=O)N6CCc7cc(Cn8nc(-c9ccc%10oc(N)nc%10c9)c9c(N)ncnc98)ccc7C6)cn5)CC4)CC3)nc2)[C@H](C)C[C@H](C)/C=C/C=C/C=C/1C"
  target-under-test: "P-Akt (S473)"
  IC50: "> 1000 nM"
- compound-structure: "CO[C@H]1C[C@@H]2CC[C@@H](C)[C@@](O)(O2)C(=O)C(=O)N2CCCC[C@H]2C(=O)O[C@H]([C@H](C)C[C@@H]2CC[C@@H](O)[C@H](OC)C2)C[C@@H](OC)[C@H](C)/C=C(\\C)[C@@H](O)[C@@H](OC)C(=NOCC(=O)NCCOCCOCCOCCOCCOCCOCCOCCOCCC(=O)NCCCCn2nc(-c3cnc4[nH]ccc4c3)c3c(N)ncnc32)[C@H](C)C[C@H](C)/C=C/C=C/C=C/1C"
  target-under-test: "P-Akt (S473)"
  IC50: "> 1000 nM"
- compound-structure: "CO[C@H]1C[C@@H]2CC[C@@H](C)[C@@](O)(O2)C(=O)C(=O)N2CCCC[C@H]2C(=O)O[C@H]([C@H](C)C[C@@H]2CC[C@@H](O)[C@H](OC)C2)C[C@@H](O)[C@H](C)/C=C(\\C)[C@@H](O)[C@@H](OC)C(=NOCC(=O)NCc2cnc(N3CCC(N4CCC(C(=O)NCCOCCC(=O)N5CCc6cc(Cn7nc(-c8ccc9oc(N)nc9c8)c8c(N)ncnc87)ccc6C5)CC4)CC3)nc2)[C@H](C)C[C@H](C)/C=C/C=C/C=C/1C"
  target-under-test: "P-Akt (S473)"
  IC50: "> 1000 nM"
- compound-structure: "CO[C@H]1C[C@@H]2CC[C@@H](C)[C@@](O)(O2)C(=O)C(=O)N2CCCC[C@H]2C(=O)O[C@H]([C@H](C)C[C@@H]2CC[C@@H](O)[C@H](OC)C2)C[C@@H](O)[C@H](C)/C=C(\\C)[C@@H](O)[C@@H](OC)C(=NOCC(=O)NCCOCCOCCOCCOCCOCCOCCC(=O)NCCCCn2nc(-c3ccc4oc(N)nc4c3)c3c(N)ncnc32)[C@H](C)C[C@H](C)/C=C/C=C/C=C/1C"
  target-under-test: "P-Akt (S473)"
  IC50: "31.6 to 1000 nM"
- compound-structure: "CO[C@H]1C[C@@H]2CC[C@@H](C)[C@@](O)(O2)C(=O)C(=O)N2CCCC[C@H]2C(=O)O[C@H]([C@H](C)C[C@@H]2CC[C@@H](O)[C@H](OC)C2)C[C@@H](O)[C@H](C)/C=C(\\C)[C@@H](O)[C@@H](OC)C(=NOCC(=O)NCCOCCOCCOCCOCCOCCOCCOCCOCCC(=O)N2CCc3cc(Cn4nc(-c5cnc6[nH]ccc6c5)c5c(N)ncnc54)ccc3C2)[C@H](C)C[C@H](C)/C=C/C=C/C=C/1C"
  target-under-test: "P-Akt (S473)"
  IC50: "> 1000 nM"

Query :: Which value of IC50 has been reported for CO[C@H]1C[C@@H]2CC[C@@H](C)[C@@](O)(O2)C(=O)C(=O)N2CCCC[C@H]2C(=O)O[C@H]([C@H](C)C[C@@H]2CC[C@@H](O)[C@H](OC)C2)C[C@@H](O)[C@H](C)/C=C(\C)[C@@H](O)[C@@H](OC)C(=NOCC(=O)NCCOCCC(=O)NCc2cnc(N3CCN(C(=O)CCOCCN4CCN(c5ncc(C(=O)NCCCCn6nc(-c7cnc8[nH]ccc8c7)c7c(N)ncnc76)cn5)CC4)CC3)nc2)[C@H](C)C[C@H](C)/C=C/C=C/C=C/1C in the records?
Result :: > 1000 nM

Query :: Which value of IC50 has been reported for CO[C@H]1C[C@@H]2CC[C@@H](C)[C@@](O)(O2)C(=O)C(=O)N2CCCC[C@H]2C(=O)O[C@H]([C@H](C)C[C@@H]2CC[C@@H](O)[C@H](OC)C2)C[C@@H](O)[C@H](C)/C=C(\C)[C@@H](O)[C@@H](OC)C(=NOc2cccc(C(=O)NCc3cnc(N4CCN(C(=O)CCOCCN5CCN(c6ncc(C(=O)N7CCc8cc(Cn9nc(-c%10ccc%11oc(N)nc%11c%10)c%10c(N)ncnc%109)ccc8C7)cn6)CC5)CC4)nc3)c2)[C@H](C)C[C@H](C)/C=C/C=C/C=C/1C in the records?
Result :: > 1000 nM

Query :: Which value of IC50 has been reported for CO[C@H]1C[C@@H]2CC[C@@H](C)[C@@](O)(O2)C(=O)C(=O)N2CCCC[C@H]2C(=O)O[C@H]([C@H](C)C[C@@H]2CC[C@@H](O)[C@H](OC)C2)C[C@@H](O)[C@H](C)/C=C(\C)[C@@H](O)[C@@H](OC)C(=NOCC(=O)NCc2cnc(N3CCN(c4ncc(C(=O)NCCOCCOCCOCCC(=O)NCCCCn5nc(-c6ccc7oc(N)nc7c6)c6c(N)ncnc65)cn4)CC3)nc2)[C@H](C)C[C@H](C)/C=C/C=C/C=C/1C in the records?
Result :: > 1000 nM

Query :: Which value of IC50 has been reported for CO[C@H]1C[C@@H]2CC[C@@H](C)[C@@](O)(O2)C(=O)C(=O)N2CCCC[C@H]2C(=O)O[C@H]([C@H](C)C[C@@H]2CC[C@@H](O)[C@H](OC)C2)C[C@@H](O)[C@H](C)/C=C(\C)[C@@H](O)[C@@H](OC)C(=NOCC(=O)NCc2cnc(N3CCN(C(=O)CN(C)CC(=O)NCCOCCOCCC(=O)NCCCCn4nc(-c5ccc6oc(N)nc6c5)c5c(N)ncnc54)CC3)nc2)[C@H](C)C[C@H](C)/C=C/C=C/C=C/1C in the records?
Result :: 31.6 to 1000 nM
